target: Matrix metalloproteinase-9 (Homo sapiens, UniProt P14780); assay: Inhibition of MMP-9 (unknown origin)
Sequence (P14780 whole entry): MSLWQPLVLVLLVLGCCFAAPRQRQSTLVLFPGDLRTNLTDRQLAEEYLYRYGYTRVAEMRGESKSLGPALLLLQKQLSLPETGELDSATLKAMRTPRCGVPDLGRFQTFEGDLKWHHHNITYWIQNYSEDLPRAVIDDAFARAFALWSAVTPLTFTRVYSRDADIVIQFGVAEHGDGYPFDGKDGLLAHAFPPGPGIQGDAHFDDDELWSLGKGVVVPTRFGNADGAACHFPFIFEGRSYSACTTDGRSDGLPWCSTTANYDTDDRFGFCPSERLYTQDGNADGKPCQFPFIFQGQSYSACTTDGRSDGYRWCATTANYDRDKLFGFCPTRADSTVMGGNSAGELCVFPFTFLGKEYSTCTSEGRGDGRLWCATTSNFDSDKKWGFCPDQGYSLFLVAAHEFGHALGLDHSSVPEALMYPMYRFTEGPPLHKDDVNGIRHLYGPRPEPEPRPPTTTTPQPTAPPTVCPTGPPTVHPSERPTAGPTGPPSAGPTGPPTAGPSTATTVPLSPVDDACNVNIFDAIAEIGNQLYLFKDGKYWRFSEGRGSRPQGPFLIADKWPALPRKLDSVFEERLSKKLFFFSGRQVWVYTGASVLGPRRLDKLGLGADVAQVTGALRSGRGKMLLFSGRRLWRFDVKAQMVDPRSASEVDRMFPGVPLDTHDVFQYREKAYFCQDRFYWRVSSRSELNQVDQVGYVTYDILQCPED
pIC50: −log10 of the molar value.
pIC50 overview
attribute measured: pIC50

- compound: "COc1ccc(S(=O)(=O)N(C)c2c(C)cc(Cc3ccc(CN(C)C)cc3)cc2C(=O)NO)cc1"
  subject of test: "Matrix metalloproteinase-9 (Homo sapiens, UniProt P14780)"
  numeric value: 8.52
- compound: "CNC(=O)[C@H](Cc1ccccc1)NC(=O)[C@H](CC(C)C)[C@H](CSc1cccs1)C(=O)NO"
  subject of test: "Matrix metalloproteinase-9 (Homo sapiens, UniProt P14780)"
  numeric value: 9.00
- compound: "CCCCOc1ccc(S(=O)(=O)C2(C(=O)NO)CCN(Cc3ccccc3)CC2)cc1"
  subject of test: "Matrix metalloproteinase-9 (Homo sapiens, UniProt P14780)"
  numeric value: 8.52
- compound: "COc1ccc(S(=O)(=O)N(C)c2c(CN3CCOCC3)cc(C)cc2C(=O)NO)cc1"
  subject of test: "Matrix metalloproteinase-9 (Homo sapiens, UniProt P14780)"
  numeric value: 8.30
- compound: "COc1ccc(S(=O)(=O)N(Cc2ccccc2)c2c(C(=O)NO)ccc3c(C(C)(C)C)cccc23)cc1"
  subject of test: "Matrix metalloproteinase-9 (Homo sapiens, UniProt P14780)"
  numeric value: 8.05
- compound: "COc1ccc(S(=O)(=O)N(Cc2ccccn2)c2c(C)cc(-c3cccc(C(F)(F)F)c3)cc2C(=O)NO)cc1"
  subject of test: "Matrix metalloproteinase-9 (Homo sapiens, UniProt P14780)"
  numeric value: 9.00
- compound: "COc1ccc(S(=O)(=O)N(c2c(C)cc(-c3cccc(C(F)(F)F)c3)cc2C(=O)NO)N(C)C)cc1"
  subject of test: "Matrix metalloproteinase-9 (Homo sapiens, UniProt P14780)"
  numeric value: 8.70
- compound: "CN(C)c1ccc(-c2cn(-c3ccc(S(=O)(=O)NC(Cc4ccccc4)C(=O)NO)cc3)nn2)cc1 (centres undefined)"
  subject of test: "Matrix metalloproteinase-9 (Homo sapiens, UniProt P14780)"
  numeric value: 8.97
- compound: "COc1ccc(S(=O)(=O)N2CN(Cc3ccccc3)C(=O)CC2C(=O)NO)cc1 (centres undefined)"
  subject of test: "Matrix metalloproteinase-9 (Homo sapiens, UniProt P14780)"
  numeric value: 8.17

###

Entries annotated with measured log10 IC50
Target: UniProt:P03956
Sequence (P03956 whole entry): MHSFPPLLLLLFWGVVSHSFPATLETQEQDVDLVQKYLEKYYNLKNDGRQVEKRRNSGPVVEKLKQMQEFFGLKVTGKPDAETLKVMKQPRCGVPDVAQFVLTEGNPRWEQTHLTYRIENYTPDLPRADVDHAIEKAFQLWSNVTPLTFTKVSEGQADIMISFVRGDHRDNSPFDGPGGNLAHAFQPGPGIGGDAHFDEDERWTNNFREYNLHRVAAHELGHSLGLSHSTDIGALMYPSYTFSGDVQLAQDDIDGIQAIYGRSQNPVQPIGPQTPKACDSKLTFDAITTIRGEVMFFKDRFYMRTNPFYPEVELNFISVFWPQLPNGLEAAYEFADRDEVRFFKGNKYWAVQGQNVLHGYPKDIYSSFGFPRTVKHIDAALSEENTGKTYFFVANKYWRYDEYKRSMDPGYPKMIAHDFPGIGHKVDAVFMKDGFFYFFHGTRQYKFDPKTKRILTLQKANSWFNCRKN
Experiment: Inhibition of MMP-1 (unknown origin)
attribute measured: log10 IC50 (log10 of the value in nM)

- compound: "COc1ccc(S(=O)(=O)N(c2c(C)cc(-c3cccc(C(F)(F)F)c3)cc2C(=O)NO)N(C)C)cc1"
  log10 IC50: 1.87
- compound: "COc1ccc(S(=O)(=O)N2CN(Cc3ccccc3)C(=O)CC2C(=O)NO)cc1 (stereo not given)"
  log10 IC50: 1.35
- compound: "COc1ccc(S(=O)(=O)N(C)c2c(CN3CCOCC3)cc(C)cc2C(=O)NO)cc1"
  log10 IC50: 2.78
- compound: "COc1ccc(S(=O)(=O)N(Cc2ccccc2)c2c(C(=O)NO)ccc3c(C(C)(C)C)cccc23)cc1"
  log10 IC50: 3.49
- compound: "COc1ccc(S(=O)(=O)N(C)c2c(C)cc(Cc3ccc(CN(C)C)cc3)cc2C(=O)NO)cc1"
  log10 IC50: 2.33

###

target: Matrilysin (Homo sapiens, UniProt P09237); test: Inhibition of recombinant human MMP7 using […] as substrate incubated for 20 to 30 mins by fluorescence microplate reader analysis
Sequence (P09237 whole entry): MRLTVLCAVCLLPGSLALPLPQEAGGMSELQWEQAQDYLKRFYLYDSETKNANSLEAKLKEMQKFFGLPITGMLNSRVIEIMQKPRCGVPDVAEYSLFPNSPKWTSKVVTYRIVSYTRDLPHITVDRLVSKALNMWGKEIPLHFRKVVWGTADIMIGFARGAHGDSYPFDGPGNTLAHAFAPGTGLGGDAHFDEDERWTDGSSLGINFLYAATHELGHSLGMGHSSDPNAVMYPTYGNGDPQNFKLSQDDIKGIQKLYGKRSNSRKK
Readings of IC50 for the listed compounds
attribute measured: IC50 (µM)

- compound: "COc1ccc(S(=O)(=O)N2CCCC(C)(C)CC2C(=O)NO)cc1 (configuration not stated)"
  numeric value: 0.018
- compound: "COc1ccc(S(=O)(=O)N2CCN(c3cccnc3)CC2C(=O)NO)cc1 (configuration not stated)"
  numeric value: 27.7

###

target: UniProt:P08254; test: Inhibition of human MMP3 using (7-methoxycoumarine-4-yl)-Arg-Pro-Lys-Pro-Tyr-Ala-Nva-Trp-Met-Lys(Dnp)-NH2 as substrate preincubated for 0.5 hrs followed by substrate addition and measured after 6 hrs by fluorimeter analysis
Sequence (P08254 whole entry): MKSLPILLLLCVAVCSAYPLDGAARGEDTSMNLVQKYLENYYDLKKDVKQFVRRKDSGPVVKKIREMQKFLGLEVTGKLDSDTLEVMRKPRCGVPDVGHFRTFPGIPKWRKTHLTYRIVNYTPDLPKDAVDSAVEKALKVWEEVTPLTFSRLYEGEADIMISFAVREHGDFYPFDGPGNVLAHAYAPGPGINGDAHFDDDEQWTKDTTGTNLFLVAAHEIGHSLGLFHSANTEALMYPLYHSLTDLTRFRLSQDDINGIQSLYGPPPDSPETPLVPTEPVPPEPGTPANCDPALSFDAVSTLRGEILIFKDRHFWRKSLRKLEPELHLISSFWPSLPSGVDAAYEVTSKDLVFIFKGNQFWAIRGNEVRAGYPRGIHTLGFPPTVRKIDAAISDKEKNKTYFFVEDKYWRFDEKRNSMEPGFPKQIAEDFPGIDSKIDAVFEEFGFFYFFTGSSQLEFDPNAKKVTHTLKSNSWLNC

- cpd smiles: "O=C(O)[C@H]1[C@H](CN2C(=O)c3ccccc3C2=O)CC[C@@H]1SCc1ccc(-c2ccc(Cl)cc2)cc1"
  u: "nM"
  IC50: 45
